# Test system: ANKK1;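 note: KINOMEscan kinase panel screen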
# experimentalConditions: concentration: 1 μM, replicates: in singlicate; n = 1
# %Inh annotations
measurementKind: %Inh (%)

> print(dat)
                                   molecule  measurementkind  outputunit  readoutvalue
1  CN(C)CCN(C)C(=O)c1cc(-c2ccncc2)c(-c2ccc(Cl)c(O)c2)o1.Cl.Cl             %Inh           %             0
2  O=C(Nc1ccc2c(c1)OCO2)NC1CCN(c2ccnc(Nc3ccc(F)cc3)n2)C1 (stereo not drawn)             %Inh           %             0
3  COc1cccc(-c2cc(-c3c[nH]nc3-c3ccccn3)ccn2)c1             %Inh           %            13
4  COC(=O)c1c(-c2ccccc2)c2cc(OC)ccc2c(=O)n1Cc1ccccc1             %Inh           %             0
5  Cc1ccc(-c2cc(-c3c[nH]nc3-c3ccccn3)ccn2)cc1             %Inh           %             0
6  COc1ccc(CNC(=O)NC2CCN(c3ccnc(Nc4cc(OC)c(OC)c(OC)c4)n3)C2)cc1 (stereo not drawn)             %Inh           %            33
7  Cc1ccc(NC(=O)Nc2cc(C(C)(C)C)nn2-c2ccccc2)cc1             %Inh           %             0
8   O=C(Nc1ccccc1)Nc1cccc(Oc2ccc3nccn3n2)c1             %Inh           %             0
9  Cl.NC(=O)c1cccc(Nc2nccc(Nc3ccc(Oc4cccc(Cl)c4)c(Cl)c3)n2)c1             %Inh           %             0

The reported measurements were obtained from paper PMC5540273.
